IC50 values by entry
# TARGET DESC: Histone deacetylase 8 (Homo sapiens, UniProt Q9BY41)
# Sequence (Q9BY41 whole entry): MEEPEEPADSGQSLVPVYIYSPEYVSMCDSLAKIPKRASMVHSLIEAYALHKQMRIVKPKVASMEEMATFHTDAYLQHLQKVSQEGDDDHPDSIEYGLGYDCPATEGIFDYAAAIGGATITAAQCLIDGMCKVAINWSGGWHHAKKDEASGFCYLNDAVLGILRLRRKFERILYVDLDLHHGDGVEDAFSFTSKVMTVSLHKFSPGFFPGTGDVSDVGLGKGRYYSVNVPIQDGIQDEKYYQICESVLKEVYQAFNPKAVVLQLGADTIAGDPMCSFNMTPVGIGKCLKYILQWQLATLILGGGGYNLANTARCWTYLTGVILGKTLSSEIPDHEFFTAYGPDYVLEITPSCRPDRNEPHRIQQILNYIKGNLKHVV
# TEST DETAILS: Inhibition of human recombinant HDAC8 using fluor de Lys as substrate preincubated for 5 mins followed by substrate addition measured after 25 mins by microplate reader analysis
# CONDITION CONTEXT: read-out: IC50
State the answer as a number, implicitly in µM.

Consider the reported IC50 for these compounds:
1) CC(C)(C)OC(=O)CCCCCCC(=O)Nc1ccc(OCc2cc(CN=[N+]=[N-])cc(N=[N+]=[N-])c2)cc1 ... 42.6
2) COC(=O)CCCCCCC(=O)Nc1cnn(Cc2cc(CN=[N+]=[N-])cc(N=[N+]=[N-])c2)c1 ... 36

Find the measured IC50: item `COC(=O)CCCCCCC(=O)Nc1ccc(OCc2cc(C)cc(C)c2)cc1` , target or system Histone deacetylase 8 (Homo sapiens, UniProt Q9BY41).
47.8

Likewise for `Cc1cc(C)cc(COc2ccc(NC(=O)CCCCCCC(=O)OC(C)(C)C)cc2)c1` ?
53.2

Likewise for `COC(=O)CCCCCCNC(=O)c1cc(-c2ccc(NC(=O)c3cc(CN=[N+]=[N-])cc(N=[N+]=[N-])c3)cc2)on1` ?
47.1

Likewise for `COc1cc(COc2ccc(NC(=O)CCCCCCC(=O)OCc3ccc(CN=[N+]=[N-])cc3)cc2)cc(N=[N+]=[N-])c1` ?
28

Likewise for `COc1cc(COc2ccc(NC(=O)CCCCCCC(=O)OCCN=[N+]=[N-])cc2)cc(N=[N+]=[N-])c1` ?
67.5

Likewise for `COC(=O)CCCCCCC(=O)Nc1ccc(OCc2cc(CN=[N+]=[N-])cc(N=[N+]=[N-])c2)cc1` ?
37.4

----------
# TARGET DESC: Histone deacetylase 1 (Homo sapiens)
# Sequence (Q13547 whole entry): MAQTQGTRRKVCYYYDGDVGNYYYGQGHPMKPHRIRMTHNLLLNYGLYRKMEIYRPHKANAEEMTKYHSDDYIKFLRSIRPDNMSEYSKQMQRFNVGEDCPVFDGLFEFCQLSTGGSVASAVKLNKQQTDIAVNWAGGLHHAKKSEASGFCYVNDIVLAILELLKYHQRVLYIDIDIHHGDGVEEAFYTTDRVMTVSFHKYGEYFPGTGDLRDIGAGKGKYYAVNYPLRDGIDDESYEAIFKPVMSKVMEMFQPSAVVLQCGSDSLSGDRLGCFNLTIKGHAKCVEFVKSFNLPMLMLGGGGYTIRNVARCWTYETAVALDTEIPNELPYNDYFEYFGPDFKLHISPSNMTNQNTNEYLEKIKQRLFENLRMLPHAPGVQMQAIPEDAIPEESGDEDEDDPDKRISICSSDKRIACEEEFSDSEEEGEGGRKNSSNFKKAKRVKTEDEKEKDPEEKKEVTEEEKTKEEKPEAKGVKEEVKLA
# TEST DETAILS: Inhibition of human recombinant HDAC1 using Boc-Lys(Ac)-AMC as substrate preincubated for 5 mins followed by substrate addition measured after 30 mins by microplate reader analysis
RESULT TYPE: pIC50
Notebook: values listed as pIC50 are -log10 of the concentration (mol/L).

1) COc1cc(COc2ccc(NC(=O)CCCCCCC(=O)OCCN=[N+]=[N-])cc2)cc(N=[N+]=[N-])c1 ... 3.95

What does the data say about its pIC50? Entry: `COc1cc(COc2ccc(NC(=O)CCCCCCC(=O)OCc3ccc(CN=[N+]=[N-])cc3)cc2)cc(N=[N+]=[N-])c1`
4.07
